target: HBV polymerase reverse transcriptase (HBV-RT) (Hepatitis B virus genotype D subtype ayw); construct: made in house; host or cells: E. coli; assay: inhibitory activity against HBV polymerase in vitro (reverse transcriptase activity); format: biochemical; details: 0.1 μg/ml; read-out: Inhibitory effect of HBV-RT
experimentalReadout: inhibition at 0.1 µg/mL (%)
The reply should contain only the number, in %.

compound: CC(C)Nc1cccnc1N1CCN(C(=O)c2ccc(C(=O)N3CCN(CCO)CC3)cc2)CC1
recordedMeasurement: 32

Query (compound): "CC(C)Nc1cccnc1N1CCN(C(=O)c2ccc(C(=O)N[C@H](CO)C(C)C)cc2)CC1" ; field requested: inhibition at 0.1 µg/mL
50

Repeat for the following compound: "CC(C)Nc1cccnc1N1CCN(C(=O)c2ccc(C(=O)N(C)CC3OCCO3)cc2)CC1"
35

Repeat for the following compound: CC(C)Nc1cccnc1N1CCN(C(=O)c2ccc(C(=O)N3CCN(CC(O)CO)CC3)cc2)CC1 (stereo not shown)
30

---

target: HIV reverse transcriptase (HIV-RT) (Human immunodeficiency virus type 1 group M subtype B, UniProt P04585); construct: purchased Boehringer Mannheim; test: in vitro inhibition test against HIV reverse transcriptase; type: biochemical, HIV (AIDS virus); details: 1 μg/ml; read-out: Inhibitory effect of HIV-RT
Known inhibition at 1 µg/mL of a selection of compounds
The reply should contain only the number, in %.

compound: CC(C)Nc1cccnc1N1CCN(C(=O)c2ccc(C(=O)N[C@H](CO)CC3CCCCC3)cc2)CC1 [Compound No. 47]
valueUnits: %
recordedMeasurement: 54

compound: CC(C)Nc1cccnc1N1CCN(C(=O)c2ccc(C(=O)N(C)CC3OCCO3)cc2)CC1 [Compound No. 71]
valueUnits: %
recordedMeasurement: 70

compound: CC(C)Nc1cccnc1N1CCN(C(=O)c2ccc(C(=O)N3CCN(CCCO)CC3)cc2)CC1 [Compound No. 27]
valueUnits: %
recordedMeasurement: 68

compound: CC(C)Nc1cccnc1N1CCN(C(=O)c2ccc(C(=O)NCCCN3CCOCC3)cc2)CC1 [Compound No. 80]
valueUnits: %
recordedMeasurement: 56

compound: CC(C)Nc1cccnc1N1CCN(C(=O)c2ccc(C(=O)N(CCO)CCO)cc2)CC1 [Compound No. 12]
valueUnits: %
recordedMeasurement: 52

compound: COCCNC(=O)c1ccc(C(=O)N2CCN(c3ncccc3NC(C)C)CC2)cc1 [Compound No. 61]
valueUnits: %
recordedMeasurement: 65

compound: CC(C)Nc1cccnc1N1CCN(C(=O)c2ccc(C(=O)NC(CO)CO)cc2)CC1 [Compound No. 52]
valueUnits: %
recordedMeasurement: 61

Consider now this further compound.
Query (compound): CC(C)Nc1cccnc1N1CCN(C(=O)c2ccc(C(=O)N(CCO)c3ccccc3)cc2)CC1 [Compound No. 11] ; field requested: inhibition at 1 µg/mL
50

---

molecular target: HBV polymerase reverse transcriptase (HBV-RT) (Hepatitis B virus genotype D subtype ayw, UniProt P03156); construct: made in house; host or cells: E. coli; experiment: inhibitory activity against HBV polymerase in vitro (reverse transcriptase activity); type: biochemical; conditions: 1 μg/ml; read-out: Inhibitory effect of HBV-RT
Sequence (P03156 whole entry): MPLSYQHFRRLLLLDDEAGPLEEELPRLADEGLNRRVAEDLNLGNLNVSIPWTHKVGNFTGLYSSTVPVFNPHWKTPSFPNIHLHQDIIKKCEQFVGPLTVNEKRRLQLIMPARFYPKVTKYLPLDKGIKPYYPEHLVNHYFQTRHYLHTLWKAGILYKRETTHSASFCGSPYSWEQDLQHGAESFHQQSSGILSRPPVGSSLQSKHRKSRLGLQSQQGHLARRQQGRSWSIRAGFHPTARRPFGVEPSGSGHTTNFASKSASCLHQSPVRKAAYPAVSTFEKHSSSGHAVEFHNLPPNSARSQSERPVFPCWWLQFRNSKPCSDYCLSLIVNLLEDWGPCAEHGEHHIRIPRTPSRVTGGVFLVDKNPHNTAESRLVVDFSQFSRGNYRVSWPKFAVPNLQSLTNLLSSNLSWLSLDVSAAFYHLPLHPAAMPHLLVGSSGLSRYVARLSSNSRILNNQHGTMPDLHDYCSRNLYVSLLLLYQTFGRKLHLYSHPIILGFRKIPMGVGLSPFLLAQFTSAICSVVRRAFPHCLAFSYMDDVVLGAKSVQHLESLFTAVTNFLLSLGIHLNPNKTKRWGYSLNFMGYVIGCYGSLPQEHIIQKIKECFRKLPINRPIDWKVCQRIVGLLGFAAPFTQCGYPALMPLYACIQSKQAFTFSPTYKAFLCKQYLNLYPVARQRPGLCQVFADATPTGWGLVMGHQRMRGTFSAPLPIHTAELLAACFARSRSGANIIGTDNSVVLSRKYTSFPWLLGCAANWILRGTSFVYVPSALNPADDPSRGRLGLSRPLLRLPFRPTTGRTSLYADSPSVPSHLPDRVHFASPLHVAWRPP
experimentalReadout: inhibition at 1 µg/mL (%)
The reply should contain only the number, in %.

Example entries begin here.
compound: CC(C)Nc1cccnc1N1CCN(C(=O)c2ccc(C(=O)N[C@H](CO)C(C)C)cc2)CC1 [Compound No. 38]
experimentalReadout: inhibition at 1 µg/mL
recordedMeasurement: 67

compound: CC(C)Nc1cccnc1N1CCN(C(=O)c2ccc(C(=O)N(C)CC3OCCO3)cc2)CC1 [Compound No. 71]
experimentalReadout: inhibition at 1 µg/mL
recordedMeasurement: 51

compound: CC(C)Nc1cccnc1N1CCN(C(=O)c2ccc(C(=O)N3CCN(CCO)CC3)cc2)CC1 [Compound No. 26]
experimentalReadout: inhibition at 1 µg/mL
recordedMeasurement: 54

Query (compound): CC(C)Nc1cccnc1N1CCN(C(=O)c2ccc(C(=O)NCC3CCCO3)cc2)CC1 (centres unmarked) [Compound No. 72] ; field requested: inhibition at 1 µg/mL
63

Repeat for the following compound: CCN(CC)C(=O)c1ccc(C(=O)N2CCN(c3ncccc3NC(C)C)CC2)cc1 [Compound No. 13]
70

---

Known inhibition at 1 µg/mL of a selection of molecules
molecular target: HBV polymerase reverse transcriptase (HBV-RT) (Hepatitis B virus genotype D subtype ayw); construct: made in house; host or cells: E. coli; experiment: inhibitory activity against HBV polymerase in vitro (reverse transcriptase activity); format: biochemical; conditions: 1 μg/ml; read-out: Inhibitory effect of HBV-RT
The reply should contain only the number, in %.

Example entries begin here.
molecule: CC(C)Nc1cccnc1N1CCN(C(=O)c2ccc(C(=O)N(C)CCO)cc2)CC1 [Compound No. 5]
valueUnits: %
inhibition at 1 µg/mL: 48
--
molecule: CC(C)Nc1cccnc1N1CCN(C(=O)c2ccc(C(=O)N[C@@H](C)CO)cc2)CC1 [Compound No. 35]
valueUnits: %
inhibition at 1 µg/mL: 82

Consider now this further molecule.
# value lookup — system HBV polymerase reverse transcriptase (HBV-RT) (Hepatitis B virus genotype D subtype ayw), readout inhibition at 1 µg/mL, item CC(C)Nc1cccnc1N1CCN(C(=O)c2ccc(C(=O)N[C@H](CO)c3ccccc3)cc2)CC1 [Compound No. 48]
80

# credit: patent US5922871A
